Target: T1, mucin domain-deleted Sudan GP (GPdMuc) (Sudan virus (SUDV), UniProt Q7T9D9 33-632)
T1 construct: also called Sudan GPdMuc; GP(S)dMuc
Experiment: BLI competition on Sudan GPdMuc (lower table); competitor 15H10
Measure Name: % inhibition of binding
Answer as a quantity: numeral, then unit.

Ask | State the recorded % inhibition of binding for this entry: antibody 241S (antibody, V domains shown) VH: QVQLVQSGSELKKPGASVKVSCKASGYTFTSYTVNWVRQAPGQGLEWMGWINTNTGNPTYAQGFTGRFVFSSDTSVSTAYLQISDLKAEDTAMYYCARHVAYDLWSGHTVTFDHWGQGTLVTVSS VL: QSALTQPPSASGSPGQSVTISCTGTSSDVGAYNYVSWYQQHPGKAPKLIIYEVTKRPSGVPDRFSGSKSGNTASLTVSGLQAEDEADYYCSSKAGGKTYVFGTGTKVTVL
Reply | 38.3%

Origin of the recorded values: patent US20260209316A1
